TEST_METHOD_NOTES: 1D proton NMR solubility experiment
Format: physicochemical
SETTINGS: PBS with 2% DMSO, aqueous buffer, kinetic from dmso stock

{"COMPOUND": "CCC(C)(C)n1nnnc1C(C(C)C)N(CCO)Cc1cc2cc(C)c(C)cc2[nH]c1=O (stereo not shown) [Compound 7]", "solubility": "10 to 15 µM"}
